Read-out: Tissue Factor, F3 (gene 2152)
Assay: BSK_LPS_TissueFactor: BioMAP Diversity Plus: LPS Assay for Tissue Factor Biomarker Activity (AID 2283084)
Settings: primary human HUVEC with PBMC; actives raise or lower the signal
The source made the active and inactive calls. The calls were made as follows: active = hit-call score of the fitted dose curve at least 0.9, where 1 is the maximum; inactive = score below 0.9.
Output constraint: value belongs to yes = active, no = inactive

Would you please look over these solved cases?
CCC(=O)OCc1ccccc1    no
C=C[Si](OCC)(OCC)OCC    no
CCCCC(CC)COCCC#N (stereo not drawn)    no

Enquiry: Recorded test call requested for "OC[C@H]1O[C@H](O[C@]2(CCl)O[C@H](CCl)[C@@H](O)[C@@H]2O)[C@H](O)[C@@H](O)[C@H]1Cl"
Return: no

Enquiry: Call for entry "CC[Si](OC(C)=O)(OC(C)=O)OC(C)=O" :
Return: no

Enquiry: Dear colleague, could you share the recorded outcome for "O=C(O)c1ccc([N+](=O)[O-])cc1" when you have a moment?
Return: no

Enquiry: What classification did "CCc1c(C)cc(N)c(CC)c1N" end up with in this test?
Return: no

Enquiry: // return assay outcome for "C=C(C)C(=O)O[C@H]1C[C@@H]2CC[C@@]1(C)C2(C)C"
Return: yes

Enquiry: Just curious, what result did "CC(=O)O[C@]1(C(C)=O)CC[C@H]2[C@@H]3C[C@H](C)C4=CC(=O)CC[C@]4(C)[C@H]3CC[C@@]21C" get here?
Return: no

Enquiry: Which outcome did this test record for the compound "Cc1ccc2n[nH]nc2c1" ?
Return: no

###

Assay: ATG_Oct_MLP_CIS: Attagene CIS-FACTORIAL HepG2 Assay for human Octamer-Binding Transcription Factor (Oct) (AID 2282993)
Settings: HepG2 Attagene cis-factorial Oct reporter, mRNA; actives raise or lower the signal
Activity calls are given as the source filed them. Rule for the calls: active = hit-call score of the fitted dose curve at least 0.9, where 1 is the maximum; inactive = score below 0.9.
Entry note: the call must match one of active, inactive

Enquiry: Query: recorded result category for CC(CCO)CCCC(C)(C)O (centres undefined) in this test
Return: inactive

Enquiry: State the result this test recorded for "Cc1c(N(C)C)c(=O)n(-c2ccccc2)n1C" .
Return: inactive

Enquiry: Could you kindly confirm the outcome this assay logged for "C=C[Si](OCC)(OCC)OCC" ?
Return: inactive

Enquiry: Outcome? "CCCCCCCCC"
Return: inactive

###

Read-out: Vascular cell adhesion molecule 1 (VCAM1), VCAM1 (gene 7412)
Experiment: BSK_hDFCGF_VCAM1: BioMAP Diversity Plus: hDFCGF Assay for Vascular cell adhesion molecule 1 (VCAM1) Biomarker Activity (AID 2283065)
Conditions: primary human foreskin fibroblasts; actives raise or lower the signal
Calls of active or inactive are those of the source. How the source made its calls: active means hit-call score of the fitted dose curve at least 0.9, where 1 is the maximum; inactive means score below 0.9.
Respond using exactly one of the listed classes: active, inactive

Check out these entries, answers already filled in.
Nc1cc([N+](=O)[O-])ccc1O    inactive
CC(=O)/C=C/C1=C(C)CCCC1(C)C    inactive
O=C(O)c1cn(C2CC2)c2cc(N3CCNCC3)c(F)cc2c1=O    inactive
C[C@H]1C[C@@H]2[C@H]([C@@H](O)C[C@@]3(C)[C@H]2CC[C@]3(O)C(=O)CO)[C@@]2(C)C=CC(=O)C=C12    inactive
CCCCCCCCCCCCCCCCCC(=O)OCC(CC)CCCC (configuration not stated)    inactive
CC[Si](OC(C)=O)(OC(C)=O)OC(C)=O    inactive
Cc1cc(C2(c3cc(C)c(O)cc3C)OS(=O)(=O)c3ccccc32)c(C)cc1O    inactive
O=C(O)c1ccc([N+](=O)[O-])cc1    inactive
c1ccc2sc(SN(C3CCCCC3)C3CCCCC3)nc2c1    inactive
CCCCCCCCCC=O    inactive

Enquiry: Can you look up the reported call for "CC(=O)Nc1ccccc1O" for me?
Return: inactive

Enquiry: Give the logged outcome of this assay for the following compound: CC1CCC(C(C)CS)CC1S (configuration not stated)
Return: active
